Where these numbers come from: PubChem BioAssay (NCI)

Test system: UACC-62 melanoma
measurement notes: NCI-60 one-dose screen, 48 h (100 = growth as untreated, 0 = no growth, -100 = all killed)
assay conditions: 10 µM unless noted
The panel holds about 83,000 compounds, 20% with a hit somewhere; the sample as a whole holds those more often.
attribute measured: growth (%)
Express your answer in %, writing the number without its unit.

Use these answered entries as a reference point.
What does the record list as growth for `C#CCOc1cccc(-c2ncc3cc(NC(=O)CCl)ccc3n2)c1` ?
-6.06

`CC/C=C\C/C=C/C=C1/C(=O)C=C[C@@H]1C/C=C\CCCC(=O)OC` , same question.
-6.19

`CCOC(=O)C1CCN(c2ccc(N3C[C@@H](CNCc4ccc(C(=N)N)cc4)OC3=O)cc2)CC1` , same question.
97.3

`COc1cc(/C=C/c2cc(/C=C/c3ccc(O)c(OC)c3)n(C(=O)Nc3ccc(F)cc3)n2)ccc1O` , same question.
2.01

Cc1ccc(C)c2c1C(O)(C#Cc1ccccc1)c1ccccc1C2(O)C#Cc1ccccc1 (stereo not drawn) , same question.
53.4

Continuing:
What does the record list as growth for CC(C(=O)O)n1c(O)c(C=Nc2cccnc2)sc1=S (stereo not drawn) ?
88.8

`CC(C)(CO)N(CCO)CCO` , same question.
101

`C=C1C(=O)O[C@H]2[C@H]1CC/C(COC(=O)NCc1ccc(Cn3c(=O)sn(-c4ccc(OC)cc4)c3=O)cc1)=C\CC[C@@]1(C)O[C@@H]21` , same question.
60.7
